system tested: UniProt:A0A6L8P2U9
experimental details: biochemical
Format: biochemical
condition context: read-out: k–2/k2
recorded endpoint: Kd

>>> measured_result("NC(=O)c1ccc[n+]([C@@H]2O[C@H](COP(=O)([O-])OP(=O)(O)OC[C@H]3O[C@@H](n4cnc5c(N)ncnc54)[C@H](O)[C@@H]3O)[C@@H](O)[C@H]2O)c1 [NAD^+]")
"380 µM"

* * *

system tested: CjIMPDH (Campylobacter jejuni, UniProt Q0P9J4, DEL92-194/T195G)
experimental details: biochemical
condition context: Ki,app
recorded endpoint: Ki (µM)

>>> measured_result("C=C(C)c1cccc(C(C)(C)NC(=O)Nc2ccc(Cl)c(NC3OC[C@@H](O)[C@H](O)[C@@H]3O)c2)c1 (stereo partly drawn)")
0.046
>>> measured_result("C/C(=N\\O)c1cccc(C(C)(C)NC(=O)Nc2ccc(Cl)c(C(N)=O)c2)c1")
0.095
>>> measured_result("C=C(C)c1cccc(C(C)(C)NC(=O)Nc2ccc(Cl)c(OCC(=O)O)c2)c1")
0.02
>>> measured_result("C/C(=N\\O)c1cccc(C(C)(C)NC(=O)Nc2ccc(Cl)c(-c3nc(C(F)(F)F)cs3)c2)c1")
0.032
>>> measured_result("C=C(C)c1cccc(C(C)(C)NC(=O)Nc2ccc(Cl)c(OC3OC(CO)C(O)C3O)c2)c1 (stereo not drawn)")
0.097
>>> measured_result("CC(C)(NC(=O)Nc1ccc(Cl)cc1)c1cccc(/C(N)=N/O)c1")
0.145

* * *

system tested: CpIMPDH (Cryptosporidium parvum)
Sequence (Q8T6T2 whole entry): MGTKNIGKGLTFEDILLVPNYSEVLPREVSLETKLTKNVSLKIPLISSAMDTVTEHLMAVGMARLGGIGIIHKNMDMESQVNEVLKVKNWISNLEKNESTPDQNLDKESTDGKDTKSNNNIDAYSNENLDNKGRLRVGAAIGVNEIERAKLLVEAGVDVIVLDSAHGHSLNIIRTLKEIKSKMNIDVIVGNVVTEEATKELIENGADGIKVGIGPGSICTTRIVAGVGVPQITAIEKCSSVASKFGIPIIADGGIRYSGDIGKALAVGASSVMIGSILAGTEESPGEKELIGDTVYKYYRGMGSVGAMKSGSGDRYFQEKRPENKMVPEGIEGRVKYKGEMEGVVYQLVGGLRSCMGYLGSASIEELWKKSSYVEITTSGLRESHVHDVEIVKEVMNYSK
pKi: −log10 of the molar value.
recorded endpoint: pKi

>>> measured_result("C/C(=N\\O)c1cccc(C(C)(C)NC(=O)Nc2ccc(Cl)c(C(N)=O)c2)c1")
8.30

* * *

system tested: UniProt A0A6L8P2U9
experimental details: biochemical
Type: biochemical
recorded endpoint: Ki (µM)

>>> measured_result("NC(=O)c1csc([C@@H]2O[C@H](CO)[C@@H](O)[C@H]2O)n1")
620

* * *

system tested: BaIMPDH (wild-type) (Bacillus anthracis, UniProt A0A6L8P2U9)
Sequence (A0A6L8P2U9 221-487, added parts left off): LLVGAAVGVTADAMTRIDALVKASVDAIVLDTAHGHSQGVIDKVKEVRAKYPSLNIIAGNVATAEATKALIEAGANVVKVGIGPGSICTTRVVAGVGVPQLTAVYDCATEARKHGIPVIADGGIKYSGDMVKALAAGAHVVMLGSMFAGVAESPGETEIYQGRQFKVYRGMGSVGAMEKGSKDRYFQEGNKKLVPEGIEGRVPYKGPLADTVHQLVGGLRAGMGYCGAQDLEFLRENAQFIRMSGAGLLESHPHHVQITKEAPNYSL
experimental details: biochemical
Format: biochemical
condition context: k–9/k9
recorded endpoint: Kd (nM)

>>> measured_result("C[C@@H](Oc1cc[n+]([O-])c2ccccc12)c1cn(-c2ccc(Cl)cc2)nn1 [A110]")
85

* * *

system tested: UniProt Q6GJQ7
Sequence (Q6GJQ7 whole entry): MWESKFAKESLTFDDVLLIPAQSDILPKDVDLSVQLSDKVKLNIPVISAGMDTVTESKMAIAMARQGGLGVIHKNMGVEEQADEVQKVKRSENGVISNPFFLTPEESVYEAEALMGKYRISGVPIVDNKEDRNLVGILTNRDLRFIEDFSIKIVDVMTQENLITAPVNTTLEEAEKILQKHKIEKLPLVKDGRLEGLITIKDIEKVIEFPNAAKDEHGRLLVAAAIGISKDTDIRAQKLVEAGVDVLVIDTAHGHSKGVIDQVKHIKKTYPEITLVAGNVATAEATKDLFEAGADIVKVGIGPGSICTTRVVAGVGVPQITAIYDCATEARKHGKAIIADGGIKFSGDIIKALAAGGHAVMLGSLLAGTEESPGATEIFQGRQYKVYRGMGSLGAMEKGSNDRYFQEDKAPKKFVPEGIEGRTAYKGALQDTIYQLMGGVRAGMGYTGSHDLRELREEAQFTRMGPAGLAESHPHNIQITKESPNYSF
recorded endpoint: Ki

>>> measured_result("C/C(=N\\O)c1cccc(C(C)(C)NC(=O)Nc2ccc(Cl)c(C(N)=O)c2)c1")
"23 nM"

* * *

system tested: BaIMPDH (wild-type) (Bacillus anthracis)
experimental details: biochemical
condition context: k–9/k9, inhibitor dissociation constant from E-XMP*
pKd: −log10 of the molar value.
// reported pKd per item
recorded endpoint: pKd

>>> measured_result("C[C@H](Oc1cccc2ccccc12)C(=O)Nc1ccc2oc(-c3ccncc3)nc2c1 [Q21]")
7.37
>>> measured_result("O=C(Cn1c(-c2ccccn2)nc2ccccc21)Nc1ccc2ccccc2c1 [C91]")
6.96
>>> measured_result("C/C(=N\\OCCN)c1cccc(C(C)(C)NC(=O)Nc2ccc(Cl)c([N+](=O)[O-])c2)c1 [P131]")
7.21
>>> measured_result("C[C@@H](Oc1cc[n+]([O-])c2ccccc12)c1cn(-c2ccc(Cl)cc2)nn1 [A110]")
7.19
>>> measured_result("Cn1nc(CC(=O)Nc2ccc3oc4c(c3c2)CCCC4)c2ccccc2c1=O [D67]")
6.38
